biological target: CBLC (Homo sapiens, UniProt Q9ULV8); construct: the DNA-tagged SH2 domain concentrations used in this study were <0.1 nM; made in house; host or cells: HEK293 (transient transfection; unpurified extract); assay: biochemical; assay type: binding; details: read-out: percent of DMSO vehicle control
Sequence (Q9ULV8 219-321 limits assumed): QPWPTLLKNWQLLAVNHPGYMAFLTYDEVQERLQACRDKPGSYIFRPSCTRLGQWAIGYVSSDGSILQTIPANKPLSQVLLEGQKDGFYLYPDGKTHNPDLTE
Non-standard residues stand in square brackets, D forms with d. Residues, ends and D or L forms follow the SMILES beside them. *: point of attachment. pY = N[C@@H](Cc1ccc(OP(=O)(O)O)cc1)C(=O)O; Caffeoyl = O=C(/C=C/c1ccc(O)c(O)c1)*
quantityMeasured: percent of DMSO vehicle control at 10 µM (%)

>  <compound>
CC[C@H](C)[C@H](NC(=O)[C@H](CCC(=O)O)NC(=O)[C@H](CCC(=O)O)NC(=O)[C@H](Cc1ccc(OP(=O)(O)O)cc1)NC(=O)/C=C/c1ccc(O)c(O)c1)C(=O)N[C@@H](CCC(=O)O)C(=O)O [Caffeic acid-pYEEIE] (Caffeoyl-[pY]EEIE-OH)

>  <recordedMeasurement>
0.1

$$$$
>  <compound>
CC(=O)N[C@@H](Cc1ccc(CP(=O)(O)O)cc1)C(=O)NC1(C(=O)N[C@@H](CC(N)=O)C(=O)NCCCc2c(O)ccc3ccccc23)CCCCC1

>  <recordedMeasurement>
128

$$$$
>  <compound>
NC(=O)CC[C@H](NC(=O)[C@@H]1CC[C@@H]2CCN(C(=O)CCCCCC#Cc3cccc4c3CN(C3CCC(=O)NC3=O)C4=O)C[C@H](NC(=O)c3cc4cc(C(F)(F)P(=O)(O)O)ccc4[nH]3)C(=O)N21)C(=O)NC(c1ccccc1)c1ccccc1 (stereo partly shown)

>  <recordedMeasurement>
113

$$$$
>  <compound>
CC(=O)N1CC[C@H]2CC[C@@H](C(=O)N[C@@H](CCC(N)=O)C(=O)NC(c3ccccc3)c3ccccc3)N2C(=O)[C@@H](NC(=O)c2cc3cc(C(F)(F)P(=O)(O)O)ccc3[nH]2)C1

>  <recordedMeasurement>
106

$$$$

----------
Listed here are molecules together with their documented Kd.
target: PLCG1(SH2dom.C-term.) (Homo sapiens); construct: SH2dom.C-term. denotes SH2 domain closest to C-terminus of protein; made in house; host or cells: HEK293 (transient transfection, unpurified extract); test: biochemical; type: binding; conditions: dose-response; read-out: KD
Sequence (P19174 668-756 limits assumed): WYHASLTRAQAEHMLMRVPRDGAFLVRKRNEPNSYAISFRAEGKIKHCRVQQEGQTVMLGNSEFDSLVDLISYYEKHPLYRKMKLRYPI
quantityMeasured: Kd (nM)

>  <molecule>
CC(C)(C)[C@H](NC(=O)/C=C/c1ccc(OP(=O)(O)O)cc1)C(=O)N1CCC[C@H]1C(=O)N(c1ccccc1)c1ccc(I)cc1 [STAT6-IN-3]

>  <quantityMeasured>
Kd

>  <recordedMeasurement>
3800

$$$$
>  <molecule>
C/C(=C\C(=O)N[C@H](C(=O)N1CCC[C@H]1C(=O)N(c1ccccc1)c1ccc(I)cc1)C(C)(C)C)c1ccc(OP(=O)(O)O)cc1 [STAT6-IN-1]

>  <quantityMeasured>
Kd

>  <recordedMeasurement>
2050

$$$$

----------
Here, each record is paired with measured percent of DMSO vehicle control at 10 µM data.
target: STAP2 (Homo sapiens, UniProt Q9UGK3); construct: made in house; host or cells: HEK293 (transient transfection), unpurified extract; assay: biochemical; type: binding; conditions: read-out: percent of DMSO vehicle control
Sequence (Q9UGK3 whole entry): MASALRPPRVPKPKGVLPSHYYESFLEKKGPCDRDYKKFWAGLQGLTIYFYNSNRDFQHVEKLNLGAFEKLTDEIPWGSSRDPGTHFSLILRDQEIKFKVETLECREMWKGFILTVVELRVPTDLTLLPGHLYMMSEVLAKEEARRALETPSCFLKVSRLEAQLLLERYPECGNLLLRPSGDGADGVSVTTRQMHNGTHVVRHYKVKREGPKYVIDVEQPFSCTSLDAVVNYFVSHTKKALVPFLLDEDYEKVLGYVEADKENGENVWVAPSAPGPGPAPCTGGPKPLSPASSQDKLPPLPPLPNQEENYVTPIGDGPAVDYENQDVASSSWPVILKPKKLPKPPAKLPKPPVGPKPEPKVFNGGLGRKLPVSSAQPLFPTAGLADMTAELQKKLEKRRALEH
Non-standard residues stand in square brackets, D forms with d. Residues, ends and D or L forms follow the SMILES beside them. *: point of attachment. pY = N[C@@H](Cc1ccc(OP(=O)(O)O)cc1)C(=O)O; Caffeoyl = O=C(/C=C/c1ccc(O)c(O)c1)*
quantityMeasured: percent of DMSO vehicle control at 10 µM (%)

>  <molecule>
CC(=O)N1CC[C@H]2CC[C@@H](C(=O)N[C@@H](CCC(N)=O)C(=O)NC(c3ccccc3)c3ccccc3)N2C(=O)[C@@H](NC(=O)c2cc3cc(C(F)(F)P(=O)(O)O)ccc3[nH]2)C1

>  <u>
%

>  <recordedMeasurement>
130

$$$$
>  <molecule>
CC[C@H](C)[C@H](NC(=O)[C@H](CCC(=O)O)NC(=O)[C@H](CCC(=O)O)NC(=O)[C@H](Cc1ccc(OP(=O)(O)O)cc1)NC(=O)/C=C/c1ccc(O)c(O)c1)C(=O)N[C@@H](CCC(=O)O)C(=O)O [Caffeic acid-pYEEIE] (Caffeoyl-[pY]EEIE-OH)

>  <u>
%

>  <recordedMeasurement>
58.7

$$$$
>  <molecule>
CC(=O)N[C@@H](Cc1ccc(CP(=O)(O)O)cc1)C(=O)NC1(C(=O)N[C@@H](CC(N)=O)C(=O)NCCCc2c(O)ccc3ccccc23)CCCCC1

>  <u>
%

>  <recordedMeasurement>
86

$$$$
>  <molecule>
NC(=O)CC[C@H](NC(=O)[C@@H]1CC[C@@H]2CCN(C(=O)CCCCCC#Cc3cccc4c3CN(C3CCC(=O)NC3=O)C4=O)C[C@H](NC(=O)c3cc4cc(C(F)(F)P(=O)(O)O)ccc4[nH]3)C(=O)N21)C(=O)NC(c1ccccc1)c1ccccc1 (stereo partly shown)

>  <u>
%

>  <recordedMeasurement>
36.1

$$$$
